studyTarget: human EGFR (L858R/T790M/C797S) (Homo sapiens, UniProt P00533, C797S/L858R/T790M)
Construct: made in house; host or cells: Sf9 insect cells, baculovirus
Sequence (P00533 with tags, fused parts or gaps T790M/C797S/L858R): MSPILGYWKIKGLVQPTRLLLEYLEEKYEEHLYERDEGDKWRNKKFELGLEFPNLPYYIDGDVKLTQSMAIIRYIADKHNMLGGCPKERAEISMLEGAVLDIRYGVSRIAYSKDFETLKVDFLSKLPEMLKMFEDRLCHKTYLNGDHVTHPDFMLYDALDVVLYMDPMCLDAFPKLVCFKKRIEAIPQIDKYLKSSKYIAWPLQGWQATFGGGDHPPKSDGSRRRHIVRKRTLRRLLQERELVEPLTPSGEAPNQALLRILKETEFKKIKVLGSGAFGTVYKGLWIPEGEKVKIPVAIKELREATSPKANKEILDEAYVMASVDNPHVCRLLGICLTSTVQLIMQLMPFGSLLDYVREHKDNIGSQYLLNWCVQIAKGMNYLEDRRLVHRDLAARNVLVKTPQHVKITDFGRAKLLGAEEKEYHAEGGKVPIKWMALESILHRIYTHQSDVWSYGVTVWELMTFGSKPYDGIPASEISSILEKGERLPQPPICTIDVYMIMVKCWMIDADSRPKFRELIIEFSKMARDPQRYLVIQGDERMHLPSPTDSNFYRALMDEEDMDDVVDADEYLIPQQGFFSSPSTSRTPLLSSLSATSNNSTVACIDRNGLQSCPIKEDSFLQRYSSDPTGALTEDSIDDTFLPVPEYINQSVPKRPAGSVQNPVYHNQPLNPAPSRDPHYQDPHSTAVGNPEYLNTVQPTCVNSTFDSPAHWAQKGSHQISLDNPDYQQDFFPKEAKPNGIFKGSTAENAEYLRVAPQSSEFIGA
procedureSummary: Inhibitory activity against EGFR (L858R/T790M/C797S) kinase
Type: biochemical
experimentalConditions: Test Example 1, Table 3; ATP 0.5 μM
IC50 values, listed per item
// return numeric value only (unit: nM, not printed)

C#Cc1c(-c2cnc3ccccc3c2)c2c(N)ncnc2n1C12CCC(NC(=O)OCC)(CC1)C2 [Example 12]    0.39

Provide the documented IC50 with human EGFR (L858R/T790M/C797S) (Homo sapiens, UniProt P00533, C797S/L858R/T790M) as the system for C#Cc1c(-c2cnc3ccccc3c2)c2c(N)ncnc2n1C12CCC(NC(=O)NCC)(CC1)C2 [Example 50]
0.68

Provide the documented IC50 with human EGFR (L858R/T790M/C797S) (Homo sapiens, UniProt P00533, C797S/L858R/T790M) as the system for C#Cc1c(-c2cnc3ccccc3c2)c2c(N)ncnc2n1C12CCC(NC(=O)c3cncc(F)c3)(CC1)C2 [Example 35]
0.5

Provide the documented IC50 with human EGFR (L858R/T790M/C797S) (Homo sapiens, UniProt P00533, C797S/L858R/T790M) as the system for C#Cc1c(-c2cnc3ccccc3c2)c2c(N)ncnc2n1C12CCC(NC(=O)c3cncn(C)c3=O)(CC1)C2 [Example 25]
0.6

Provide the documented IC50 with human EGFR (L858R/T790M/C797S) (Homo sapiens, UniProt P00533, C797S/L858R/T790M) as the system for C#Cc1c(-c2cnc3ccccc3c2)c2c(N)ncnc2n1C12CCC(NC(=O)c3ncccn3)(CC1)C2 [Example 51]
0.34

----------
studyTarget: human EGFR (WT) (Homo sapiens, UniProt P00533)
Construct: purchased Carna Biosciences Inc., Japan
Sequence (P00533 25-1210): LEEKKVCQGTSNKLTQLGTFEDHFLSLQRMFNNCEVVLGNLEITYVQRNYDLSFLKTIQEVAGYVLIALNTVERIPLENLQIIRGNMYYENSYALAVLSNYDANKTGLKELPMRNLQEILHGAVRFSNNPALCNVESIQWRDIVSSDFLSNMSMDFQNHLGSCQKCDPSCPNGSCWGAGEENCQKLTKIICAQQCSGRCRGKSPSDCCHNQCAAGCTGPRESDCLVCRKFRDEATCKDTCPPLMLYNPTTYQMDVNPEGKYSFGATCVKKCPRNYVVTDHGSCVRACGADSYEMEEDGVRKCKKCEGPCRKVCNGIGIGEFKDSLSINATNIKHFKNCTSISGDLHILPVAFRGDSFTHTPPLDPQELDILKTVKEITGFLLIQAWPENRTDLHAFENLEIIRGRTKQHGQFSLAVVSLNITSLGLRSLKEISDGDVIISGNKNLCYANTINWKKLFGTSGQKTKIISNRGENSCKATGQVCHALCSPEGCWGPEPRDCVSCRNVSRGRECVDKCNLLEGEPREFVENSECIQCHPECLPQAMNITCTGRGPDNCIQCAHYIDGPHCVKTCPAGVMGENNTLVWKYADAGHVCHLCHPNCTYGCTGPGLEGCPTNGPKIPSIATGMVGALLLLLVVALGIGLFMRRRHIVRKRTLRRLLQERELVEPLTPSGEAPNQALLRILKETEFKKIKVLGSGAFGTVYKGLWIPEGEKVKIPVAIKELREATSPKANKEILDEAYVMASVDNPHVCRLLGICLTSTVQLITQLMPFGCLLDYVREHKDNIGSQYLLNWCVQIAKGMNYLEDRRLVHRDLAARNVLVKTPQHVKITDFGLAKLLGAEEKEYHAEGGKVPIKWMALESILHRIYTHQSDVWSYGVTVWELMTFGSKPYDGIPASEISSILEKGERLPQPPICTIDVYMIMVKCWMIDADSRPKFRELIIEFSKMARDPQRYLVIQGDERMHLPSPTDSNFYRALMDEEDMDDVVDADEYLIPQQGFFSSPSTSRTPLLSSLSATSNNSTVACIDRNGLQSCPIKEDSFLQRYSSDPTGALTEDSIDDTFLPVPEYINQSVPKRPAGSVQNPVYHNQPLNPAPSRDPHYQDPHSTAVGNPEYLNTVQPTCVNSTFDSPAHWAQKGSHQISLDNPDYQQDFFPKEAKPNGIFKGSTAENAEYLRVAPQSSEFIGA
procedureSummary: Inhibitory activity against EGFR (WT) kinase
Format: biochemical
experimentalConditions: Test Example 3, Table 12; same procedures as 5) in Test Example 1
Method: The compounds of the present invention were measured for their inhibitory activity nainst EGFR (WT) kinase activity. […] In accordance with the same procedures as shown in 5) in Test Example 1, the compounds of the present invention were measured for their inhibitory activity against. […]
pIC50 values, listed per item
// pIC50: -log10(molar conc.)

Data request, read-out pIC50, for C#Cc1c(-c2cnc3ccccc3c2)c2c(N)ncnc2n1C12CCC(NC(=O)[C@@H]3CNCCO3)(CC1)C2 [Example 62]
8.80

----------
studyTarget: human EGFR (WT) (Homo sapiens)
Construct: purchased Carna Biosciences Inc., Japan
procedureSummary: Inhibitory activity against EGFR (WT) kinase
Assay type: biochemical
experimentalConditions: Test Example 1, Table 6; ATP 1.5 μM
observable: pIC50
// pIC50: -log10(molar conc.)

C#Cc1c(-c2cnc3ccccc3c2)c2c(N)ncnc2n1C12CCC(NC(=O)c3cc(S(C)(=O)=O)ccn3)(CC1)C2    8.72
C#Cc1c(-c2cnc3ccccc3c2)c2c(N)ncnc2n1C12CCC(CO)(CC1)C2    8.96
C#Cc1c(-c2cnc3ccccc3c2)c2c(N)ncnc2n1C12CCC(NC(=O)c3ccnn3-c3ccccc3)(CC1)C2    8.68
C=CC(=O)N1CC[C@@H](n2cc(-c3cnc4ccccc4c3)c3c(N)ncnc32)C1 [Comparative Example A, reference compound]    8.80

Data request, read-out pIC50, for C#Cc1c(-c2cnc3ccccc3c2)c2c(N)ncnc2n1C12CCC(NC(=O)C(F)F)(CC1)C2
8.62

Data request, read-out pIC50, for C#Cc1c(-c2cnc3ccccc3c2)c2c(N)ncnc2n1C12CCC(NC(=O)c3nccs3)(CC1)C2
8.72
